All values here come from the supplement of paper PMC10899765.

test system: MCF10A; test: percent viability (nuclei count relative to siNT); higher = more viable cells; conditions: 20 nM; 72 h
REPORTED_METRIC: percent viability (%)
Numeric answer only, unit % assumed.

Sample answers from the record:
CCCAUCACCUUUCCGUCUCCCCU [hsa-miR-6884-3p] : 70.3
CAUACAAUCUGACAUGUAUUU [hsa-miR-4666a-3p] : 66.1

Ask: Could you share what percent viability was measured for GGUGGAUAUUCCUUCUAUGUU [hsa-miR-376c-5p] , tested on MCF10A?
Reply: 20.7

Ask: Could you share what percent viability was measured for ACUCAGUCAUGGUCAUU [hsa-miR-4264] , tested on MCF10A?
Reply: 95.1

Ask: Could you share what percent viability was measured for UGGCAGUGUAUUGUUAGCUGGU [hsa-miR-449a] , tested on MCF10A?
Reply: 14

Ask: Could you share what percent viability was measured for CUGACUGAAUAGGUAGGGUCAUU [hsa-miR-3136-5p] , tested on MCF10A?
Reply: 32.7

###

system: MCF10A; test: one-nucleolus phenotype percent effect (relative to siNT 0% and siNOL11 100%); higher = more cells with one nucleolus (ribosome biogenesis inhibition); settings: 20 nM; 72 h
# key: entry, value: one-nucleolus phenotype percent effect
Numeric answer only, unit % assumed.

Sample answers from the record:
UGGGGAGCGGCCCCCGGGUGGG [hsa-miR-1343-5p] : -31.1
GAUAUCAGCUCAGUAGGCACCG [hsa-miR-3074-3p] : -9.52
GGAUCCGAGUCACGGCACCA [hsa-miR-4454] : -14.9

Ask: Requested field: one-nucleolus phenotype percent effect. Item: ACAAGGUGUGCAUGCCUGACC [hsa-miR-4761-5p]
Reply: 53.7

Ask: Requested field: one-nucleolus phenotype percent effect. Item: AGCUGGUAAAAUGGAACCAAAU [hsa-miR-133a-5p]
Reply: 7.21

Ask: Requested field: one-nucleolus phenotype percent effect. Item: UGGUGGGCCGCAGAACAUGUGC [hsa-miR-654-5p]
Reply: 20.4

###

system: MCF10A; assay: one-nucleolus phenotype percent effect (relative to siNT 0% and siNOL11 100%); higher = more cells with one nucleolus (ribosome biogenesis inhibition); settings: 20 nM; 72 h
# key: entry, value: one-nucleolus phenotype percent effect
Numeric answer only, unit % assumed.

Sample answers from the record:
CAUCUGGGCAACUGACUGAAC [hsa-miR-1298-3p] : 57
AAAAGCUGGGUUGAGAGGGCGA [hsa-miR-320a] : 18.7

Ask: Requested field: one-nucleolus phenotype percent effect. Item: ACUCAAACUGUGGGGGCACU [hsa-miR-371a-5p]
Reply: 3.21

Ask: Requested field: one-nucleolus phenotype percent effect. Item: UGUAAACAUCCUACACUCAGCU [hsa-miR-30b-5p]
Reply: -9.57

Ask: Requested field: one-nucleolus phenotype percent effect. Item: UCACCUGACCUCCCAUGCCUGU [hsa-miR-3622a-3p]
Reply: -15.8

Ask: Requested field: one-nucleolus phenotype percent effect. Item: CUGCAAAGGGAAGCCCUUUC [hsa-miR-518a-5p]
Reply: 60.3

Ask: Requested field: one-nucleolus phenotype percent effect. Item: UGAGUGACAGGGGAAAUGGGGA [hsa-miR-1236-5p]
Reply: -0.0652

Ask: Requested field: one-nucleolus phenotype percent effect. Item: CAUGGUUCUGUCAAGCACCGCG [hsa-miR-218-2-3p]
Reply: 12.5

Ask: Requested field: one-nucleolus phenotype percent effect. Item: AUUGGGGACAUUUUGCAUUCAU [hsa-miR-450a-3p]
Reply: 7.56

Ask: Requested field: one-nucleolus phenotype percent effect. Item: AGGGAGAAAGCUAGAAGCUGAAG [hsa-miR-6878-5p]
Reply: -18.3

###

# key: entry, value: 5+ nucleoli phenotype percent effect
system: MCF10A; assay: 5+ nucleoli phenotype percent effect (relative to siNT 0% and siKIF11 100%); higher = more cells with five or more nucleoli; details: 20 nM; 72 h
Put down the number, then write its unit next to it.

Sample answers from the record:
UUGGAGGGUGUGGAAGACAUC [hsa-miR-6515-5p] : -18.5%
CCUGUUGAAGUGUAAUCCCCA [hsa-miR-1267] : 39.6%
CGAGGGCAUUUCAUGAUGCAGGC [hsa-miR-3616-3p] : -22%

Ask: Could you share what 5+ nucleoli phenotype percent effect was measured for ACCACUGACCGUUGACUGUACC [hsa-miR-181a-2-3p] , tested on MCF10A?
Reply: 12.6%

Ask: Could you share what 5+ nucleoli phenotype percent effect was measured for ACUGCAGUGAAGGCACUUGUAG [hsa-miR-17-3p] , tested on MCF10A?
Reply: 12.2%

Ask: Could you share what 5+ nucleoli phenotype percent effect was measured for ACUAAAGGAUAUAGAAGGUUUU [hsa-miR-4509] , tested on MCF10A?
Reply: 5.5%

###

test system: MCF10A; assay: one-nucleolus phenotype percent effect (relative to siNT 0% and siNOL11 100%); higher = more cells with one nucleolus (ribosome biogenesis inhibition); conditions: 20 nM; 72 h
# key: entry, value: one-nucleolus phenotype percent effect
Numeric answer only, unit % assumed.

UGUAGAUACGAGCACCAGCCAC [hsa-miR-3935] : -7.2
UGUGUCCCAUUAUUGGUGAUU [hsa-miR-3657] : 32.2

Ask: Could you share what one-nucleolus phenotype percent effect was measured for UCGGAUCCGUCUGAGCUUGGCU [hsa-miR-127-3p] , tested on MCF10A?
Reply: 14.4

###

system: MCF10A; experiment: one-nucleolus phenotype percent effect (relative to siNT 0% and siNOL11 100%); higher = more cells with one nucleolus (ribosome biogenesis inhibition); conditions: 20 nM; 72 h
# key: entry, value: one-nucleolus phenotype percent effect
Numeric answer only, unit % assumed.

UUAUAAAGCAAUGAGACUGAUU [hsa-miR-340-5p] : 47.7
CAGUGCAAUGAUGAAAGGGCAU [hsa-miR-130b-3p] : -14.8
GUGGGAUUUCUGAGUAGCAUC [hsa-miR-5089-5p] : 3.12
CGGGCGUGGUGGUGGGGGUG [hsa-miR-1268b] : 8.5
AAAGGUAAUUGUGGUUUCUGC [hsa-miR-548ag] : -6.82
UGAGCACCACACAGGCCGGGCGC [hsa-miR-3663-3p] : -6.6
CAGGAUCCACAGAGCUAGUCCA [hsa-miR-4661-3p] : 7.03
GGGGGUCCCCGGUGCUCGGAUC [hsa-miR-615-5p] : -20

Ask: Could you share what one-nucleolus phenotype percent effect was measured for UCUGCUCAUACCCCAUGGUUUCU [hsa-miR-767-3p] , tested on MCF10A?
Reply: -21.6

###

# key: entry, value: 5+ nucleoli phenotype percent effect
system: MCF10A; assay: 5+ nucleoli phenotype percent effect (relative to siNT 0% and siKIF11 100%); higher = more cells with five or more nucleoli; settings: 20 nM; 72 h
Numeric answer only, unit % assumed.

Sample answers from the record:
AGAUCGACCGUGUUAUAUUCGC [hsa-miR-369-5p] : 3.93
UUCUGGAAUUCUGUGUGAGGGA [hsa-miR-1299] : -3.13
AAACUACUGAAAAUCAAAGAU [hsa-miR-606] : 18.1
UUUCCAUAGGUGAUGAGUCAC [hsa-miR-587] : 39.4
GGUCCAGAGGGGAGAUAGGUUC [hsa-miR-198] : 5.19

Ask: Could you share what 5+ nucleoli phenotype percent effect was measured for UCACAAGGUAUUGACUGGCGUA [hsa-miR-4457] , tested on MCF10A?
Reply: -15.7

###

# key: entry, value: percent viability
test system: MCF10A; experiment: percent viability (nuclei count relative to siNT); higher = more viable cells; settings: 20 nM; 72 h
Numeric answer only, unit % assumed.

Sample answers from the record:
AUAUUACCAUUAGCUCAUCUUU [hsa-miR-556-3p] : 46.5
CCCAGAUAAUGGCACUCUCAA [hsa-miR-488-5p] : 50.9
UCUUCUUCCUUUGCAGAGUUGA [hsa-miR-4778-3p] : 77.1

Ask: Requested field: percent viability. Item: UGACAGCGCCCUGCCUGGCUC [hsa-miR-2277-3p]
Reply: 79

Ask: Requested field: percent viability. Item: CUGGCCUCUUCUUUCUCCUAG [hsa-miR-6878-3p]
Reply: 45.7

Ask: Requested field: percent viability. Item: UAAGUGCUUCCAUGCUU [hsa-miR-302e]
Reply: 93.6

###

tested on: MCF10A; experiment: 5+ nucleoli phenotype percent effect (relative to siNT 0% and siKIF11 100%); higher = more cells with five or more nucleoli; conditions: 20 nM; 72 h
REPORTED_METRIC: 5+ nucleoli phenotype percent effect (%)
Numeric answer only, unit % assumed.

Ask: Requested field: 5+ nucleoli phenotype percent effect. Item: CCGGUUCCAGUCCCUGGAG [hsa-miR-6070]
Reply: -6.27
